- Test system: Escherichia coli
- ASSAY PROTOCOL: Antibacterial activity against Escherichia coli ATCC 25922 (CO-ADD:GN_001); MIC in CAMBH media using NBS plates, by Resazurin F(560/590)
- Type: functional
- CONDITION SET: Concentration 20 uM, ASSAY_TEST Inhibition of Bacterial Growth, detection method Resazurin, Fluorescence (ex560/em590), MEDIA CAMHB, plate type 384well, CORNING #3640, time 18 hr
# Inhibition values compiled below
OBSERVABLE: Inhibition (%)

> print(dat)
                                    compound  unit  result.value
 1  COc1cc(C(=O)C(=O)c2cc(OC)c(O)c(OC)c2)cc(OC)c1O     %         -5.19
 2   CN(C)S(=O)(=O)c1ccc(N)c([N+](=O)[O-])c1     %          8.14
 3  O=C1CCCc2cc3c(cc21)CC1(C3)Cc2cc3c(cc2C1)C(=O)CCC3     %          9.88
 4                    CC(=O)NC1(C(=O)O)CCCC1     %           8.7
 5  NC1=NC(Nc2ccccc2)=NC(c2ccccc2)N1 (stereo unspecified)     %          5.99
 6         O=[N+]([O-])/C=C/c1cc2ccccc2[nH]1     %          9.79
 7  COc1c(NC=O)c2c(c([N+](=O)[O-])c1OC)C(=O)OC2     %          3.05
 8  O=C1C2C3C=CC(CC3)C2S(=O)(=O)C2C3C=CC(CC3)C12 (stereo unspecified)     %          8.07
 9     NC(=N\c1ccc(N)cc1)/C(N)=N/c1ccc(N)cc1     %          7.03
10        CCNc1nn2ccccc2c1/C=C(/C#N)C(=O)OCC     %          7.73
11                COc1cc2c(c(OC)c1O)C(=O)CO2     %         -0.75
12                N#Cc1n[nH]c2nc[nH]c(=O)c12     %          9.33
13       O=C(Nc1ccc2ncccc2c1)Nc1ccc2ncccc2c1     %         13.25
14  CC1(C)CCCC2(C)C(OCCO)=CC(=O)C=C12 (stereo unspecified)     %          0.39
15                             CCCCN1CCN=C1S     %         10.98
16                    CSc1nnc(-c2cccs2)[nH]1     %         11.01
17  CSc1nc(N)c(C(=O)Nc2ccc([N+](=O)[O-])cc2)s1     %          8.19
18  CC1CC(C)(C)C2=NCCN21 (stereo unspecified)     %          7.35
19      Cc1cccc2c1c1ccc3c(c1n2C)C(=O)C=CC3=O     %         14.66
20  N#Cc1cnn2ccn(C3OC(CO)C(O)C3O)c12 (stereo unspecified)     %          8.76
21  Cc1ccc(/N=N/c2ccc(N)cc2C)c(S(N)(=O)=O)c1     %          2.58
22                  c1cncc(-c2nc3ccccc3s2)c1     %        -11.97
23           COc1c(NC(C)=O)c2ccccc2c2ccccc12     %          1.88
24         CN(C)c1ccc(/N=N\c2cccc3ccoc23)cc1     %        -16.41
25  CC(=O)OC1C=CCC2C(=O)c3cccc(O)c3C(O)C12 (stereo unspecified)     %          6.95
26  O=C(Nc1ccc(Oc2ccc(NC(=O)Nc3ccc([N+](=O)[O-])cc3)cc2)cc1)Nc1ccc([N+](=O)[O-])cc1     %         13.56
27     Cc1ccc(S(=O)(=O)N(C)C)cc1[N+](=O)[O-]     %         -0.42
28             Clc1ccccc1/C=C/c1ccnc2ccccc12     %          1.57
29                 C#CCSc1nc(-c2ccco2)n[nH]1     %          -3.2
30  CC1CN(CCN2CC(C)N(C=O)CC2C)C(C)CN1C=O (stereo unspecified)     %        -13.71
31                   Cc1ccc2nc(Cl)cc(=O)n2c1     %        -11.05
32  CC(=O)Oc1c(C)c(OC(C)=O)c2c(c1C(C)=O)OC1CC(=O)C(C(C)=O)=C(O)C21C (stereo unspecified)     %         18.15
33  OC(COc1ccc(Cl)cc1)CN1CCN(c2cccc(Cl)c2)CC1 (stereo unspecified)     %         10.45
34  O[C@@H](c1cc(-c2ccc(C(F)(F)F)cc2)nc(C(F)(F)F)c1)[C@H]1CCCCN1     %          8.91
35                        Oc1ccccc1Nc1ccccn1     %         13.47
36        NC(=S)N/N=C/c1cc(-c2cccc(N)c2)ccn1     %         11.56
37                 C=CCSc1n[nH]c(-c2cccs2)n1     %          1.25
38          CCCCOc1ccc(NC(=O)Nc2nnc(C)s2)cc1     %          5.52
39             Nc1ccc(OC(=O)Nc2ccc(O)cc2)cc1     %        -11.72
40                        N#CCc1cnc2ccccc2n1     %          3.75
41             Nc1ccc(/N=N/c2ccccc2Cl)c(N)n1     %          2.51
42              CNC(=O)Nc1ccc(S(N)(=O)=O)cc1     %         -4.85
43           c1ccc2sc(SCSc3nc4ccccc4s3)nc2c1     %          3.51
44  C=CCN1CCN(c2ccncc2S(=O)(=O)N2CCN(C)CC2)CC1     %          5.47
45          Cc1cc(C)n(C(=N)NC(=O)c2ccccc2)n1     %         -0.32
46                      NC(=S)NC(=O)c1ccccc1     %         13.89
47                  O=C(c1ccc(Cl)nc1)c1cccs1     %         -2.66
48         CCCN(CCC)CC(=O)N1CC(=O)Nc2ccccc21     %        -10.49
49       Cc1ccc(Nc2nc(Cl)nc3ncn(C)c23)c(C)c1     %         -0.86
50  Cn1ncc2c(Nc3ccccc3Cl)nc(Nc3ccccc3Cl)nc21     %         -7.44
51                      O=C(O)c1ccc(O)c(O)c1     %         11.18
